pIC50: recorded values
Target Or System: His-PKC-theta (Homo sapiens, UniProt Q04759)
Construct: His; purchased Invitrogen
Sequence (Q04759 whole entry): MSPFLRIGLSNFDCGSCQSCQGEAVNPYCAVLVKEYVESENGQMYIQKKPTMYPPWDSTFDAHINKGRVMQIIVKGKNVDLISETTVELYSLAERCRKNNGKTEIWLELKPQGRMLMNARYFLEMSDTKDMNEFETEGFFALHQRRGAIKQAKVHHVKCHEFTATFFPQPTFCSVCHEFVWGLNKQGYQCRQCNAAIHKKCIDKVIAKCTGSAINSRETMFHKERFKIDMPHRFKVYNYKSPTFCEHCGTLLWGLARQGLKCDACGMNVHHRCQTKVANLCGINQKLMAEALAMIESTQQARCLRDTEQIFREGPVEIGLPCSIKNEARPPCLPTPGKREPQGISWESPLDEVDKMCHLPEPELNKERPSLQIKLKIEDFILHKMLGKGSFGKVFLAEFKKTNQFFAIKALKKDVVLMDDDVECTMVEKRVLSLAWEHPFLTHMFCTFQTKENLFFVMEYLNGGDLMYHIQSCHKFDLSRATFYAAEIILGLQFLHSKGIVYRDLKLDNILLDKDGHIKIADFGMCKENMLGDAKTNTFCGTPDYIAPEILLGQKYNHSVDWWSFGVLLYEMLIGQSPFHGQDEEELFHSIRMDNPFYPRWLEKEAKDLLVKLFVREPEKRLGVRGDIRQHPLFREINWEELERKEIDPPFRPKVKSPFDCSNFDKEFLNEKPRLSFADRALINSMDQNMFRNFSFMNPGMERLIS
Protocol Summary: PKC-theta Assay (384-well time resolved fluorescence, IMAP TR-FRET)
Assay type: biochemical
Measurement Parameters: read-out: Act. Level (IC50 in the PKC-theta Assay)
pIC50: −log10 of the molar value.

Compound	Target Or System	pIC50
CC1(C)[C@@H](CO)C[C@H]1Nc1nc(NCc2cnccc2C(F)(F)F)ncc1C(F)(F)F [Cmpd 32]	His-PKC-theta (Homo sapiens, UniProt Q04759)	> 7.00
C[C@@H]1CC[C@H](Nc2nc(NCc3cnccc3C(F)(F)F)ncc2C#N)C[C@H]1O [Cmpd 87]	His-PKC-theta (Homo sapiens, UniProt Q04759)	> 7.00
CCOc1ncncc1CNc1ncc(C(F)(F)F)c(N[C@@H]2CC[C@H](O)C(C)(C)C2)n1 [Cmpd 25]	His-PKC-theta (Homo sapiens, UniProt Q04759)	> 7.00
CC1(C)[C@@H](O)C[C@H]1Nc1nc(NCCc2cccc3cccnc23)ncc1C#N [Cmpd 190]	His-PKC-theta (Homo sapiens, UniProt Q04759)	5.00 to 5.70
CC(F)(F)COc1ncncc1CNc1ncc(C#N)c(NC2C[C@@H](O)C2(C)C)n1 (stereo partly drawn) [Cmpd 88]	His-PKC-theta (Homo sapiens, UniProt Q04759)	> 7.00
CC(C)c1ncncc1CNc1ncc(C#N)c(N[C@H]2CC[C@@](C)(O)CC2)n1 [Cmpd 56]	His-PKC-theta (Homo sapiens, UniProt Q04759)	> 7.00
N#Cc1cnc(NCc2ccccc2Oc2ccccc2)nc1N[C@H]1CC[C@@H](O)CC1 [Cmpd 118]	His-PKC-theta (Homo sapiens, UniProt Q04759)	6.10 to 7.00
CC1(C)C[C@H](Nc2nc(NCCc3c[nH]c4ccc(F)cc34)ncc2C#N)CC[C@@H]1O [Cmpd 181]	His-PKC-theta (Homo sapiens, UniProt Q04759)	6.10 to 7.00
N#Cc1cnc(NCCC2C(=O)Nc3ccccc32)nc1N[C@H]1CC[C@@H](O)CC1 (stereo partly drawn) [Cmpd 155]	His-PKC-theta (Homo sapiens, UniProt Q04759)	6.10 to 7.00
CC(C)(F)c1ncncc1CNc1ncc(C#N)c(N[C@H]2C[C@@H](CO)C2(C)C)n1 [Cmpd 109]	His-PKC-theta (Homo sapiens, UniProt Q04759)	6.10 to 7.00
CC1(C)C[C@H](Nc2nc(NCCc3c[nH]c4ccc(Cl)cc34)ncc2C#N)CC[C@@H]1O [Cmpd 169]	His-PKC-theta (Homo sapiens, UniProt Q04759)	6.10 to 7.00
CC1(C)[C@@H](O)C[C@H]1Nc1nc(NCCc2ccon2)ncc1C#N [Cmpd 228]	His-PKC-theta (Homo sapiens, UniProt Q04759)	5.70 to 6.10
CC1(C)C[C@H](Nc2nc(NCc3cncnc3OCCF)ncc2C#N)CC[C@@H]1O [Cmpd 21]	His-PKC-theta (Homo sapiens, UniProt Q04759)	> 7.00
CC1(C)C[C@H](Nc2nc(NCCC3C(=O)Nc4ccccc43)ncc2C#N)CC[C@H]1O (stereo partly drawn) [Cmpd 158]	His-PKC-theta (Homo sapiens, UniProt Q04759)	6.10 to 7.00
CC(C)(F)c1ncncc1CNc1ncc(C(F)(F)F)c(N[C@@H]2C[C@H](O)C2(C)C)n1 [Cmpd 1]	His-PKC-theta (Homo sapiens, UniProt Q04759)	> 7.00
CC1(C)[C@@H](O)C[C@H]1Nc1nc(NCc2cncnc2-c2ccc(F)cc2)ncc1C#N [Cmpd 79]	His-PKC-theta (Homo sapiens, UniProt Q04759)	> 7.00
CC1(C)C[C@H](Nc2nc(NCc3cnccc3C(F)(F)F)ncc2C(F)(F)F)CC[C@@H]1O [Cmpd 18]	His-PKC-theta (Homo sapiens, UniProt Q04759)	> 7.00
CC1(C)C[C@H](Nc2nc(NCCc3ccon3)ncc2C#N)CC[C@@H]1O [Cmpd 220]	His-PKC-theta (Homo sapiens, UniProt Q04759)	5.70 to 6.10

Data origin, for the record: patent US9783505B2
